Reference for the values: patent US20220195015A1

Documented EC50 across a set of binders
Target System: SARS-CoV-2 spike protein receptor binding domain (RBD) (SARS-CoV-2, UniProt P0DTC2 319-539)
Assay Remarks: ELISA on plate-coated RBD
Record the result as a number with its unit.

Please review the following examples before continuing.
binder="C710 (antibody, V domains shown) VH: QVQLQESGPGLVKPSETLSLTCIVSGGSINSTTYYWDWIRQSPGKGLEWIGSIFYTGITYYSPSLKTRVTISVDTSKNQFSLRLNSMTAADTAVYYCARRLRQLWFGPWFDPWGQGTLVTVSS VL: QSALTQPPSASGSPGQSVTISCTGTRSDVGDYNYVSWYQQHPDKAPKLIIFEVTKRPSGVPDRFSGSKSGNTASLTVSGLQAEDEADYYCSSYAGSSNVMFGGGTKLTVL" result="0.0178 µg/mL"
binder="C046 (antibody, V domains shown) VH: EVQLVESGGGLAQPGRSLRLSCAASGFTFDDYAMHWVRQAPGKGLEWVSGINWNSGSLGYADSVKGRFTISRGIAKNSLYLQMNSLRPEDTAFYYCAKAGVRGIAAAGPDLNFDYWGQGTLVTVSS VL: EIVLTQSPATLSLSPGERATLSCRASQSVSSYLAWYQQKPGQAPRLLIYDASNRATGIPARFIGSGSGTDFTLTISSLEPEDFAVYYCQQRITFGQGTRLEIK" result="0.00402 µg/mL"

query: Endpoint output: EC50 of C708 (antibody, V domains shown) VH: EVQLVESGGGLVQPGGSLRLSCAASGFSFSTYWMSWVRQAPGKGLEWVADIKQDGSEKYFVDSVKGRFTISRDNAKNSLYLHLNSLRAEDTAVYYCAREMAGSGNYYWFGYGMDVWGQGTTVTVSS VL: IRMTQSPSSVSASVGDRVTITCRASQGISSWLAWYQQKPGKAPKLLIYAASSLQSGVPSRFSGSESGTDFTLTISSLQPEDFATYYCQQANSFPLTFGGGTKVEIK . Value?
result: 0.13 µg/mL
